Entries and their kon values follow.
MEASURED ON: T1, CTNI quality control recombinant protein (PK2-CTNI-1, 170120, produced by the applicant) (human, UniProt P19429 2-210, limits assumed)
T1 construct: also called cardiac troponin I
ASSAY METHOD TEXT: AMC sensor kinetics, antibody captured, cTnI analyte
Experimental: Using the AMC sensor, the purified antibody was diluted with PBST to 10 μg/ml, and the CTNI quality control recombinant protein (PK2-CTNI-1, 170120, produced by the applicant) was serially diluted with PBST to 400 nmol/ml, 200 nmol/ml, 100 nmol/ml, 50 nmol/ml, 25 nmol/ml, 12.5 nmol/ml, 6.25 nmol/ml, and 0 nmol/ml.
The reply should contain only the number, in M⁻¹ s⁻¹.

See these solved cases before continuing.
| BINDER | UNITS OF MEASURE | READING |
| --- | --- | --- |
| Mutation 1-20 (antibody, V domains shown, built as for Mutation 1) VH: EVQLQQSGAELVKPGASVKLSCTASGFNLKDYFMHWMKQRTEQGLDWIGRIDPEDGETKYAPEFQGKATITADTSSNTAYLQLSTLTSEDTAVYYCARYYSSYVPFVYWGQGTLVTASA VL: DVVMTQTPLSLSVSLGDQASISCRSSQSLIYSNRHTYLHWYLQKPGQSPKLLIFQVSNRFSGVPDRFSGSGSGTDFTLKINRVEAEDLGVYFCSQSTHIPFTFGSGTKLEIKR | M⁻¹ s⁻¹ | 167000 |
| Mutation 1-45 (antibody, V domains shown, built as for Mutation 1) VH: EVQLQQSGAELVKPGASVKLSCTASGFNIKDYYMHWMKQRTEQGLDWIGRIDPEDGETKYAPEFQGKATITADTSSNTAYLQLSTLTSEDTAVYYCARYYSSYVPFVYWGQGTLVTASA VL: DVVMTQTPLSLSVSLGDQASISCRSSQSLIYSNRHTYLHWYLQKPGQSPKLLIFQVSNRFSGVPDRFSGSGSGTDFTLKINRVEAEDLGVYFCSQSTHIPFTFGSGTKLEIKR | M⁻¹ s⁻¹ | 193000 |

Consider now this further binder.
Param item = Mutation 1-21 (antibody, V domains shown, built as for Mutation 1) VH: EVQLQQSGAELVKPGASVKLSCTASGFNLKDYYMHWMKQRTEQGLDWIGRIDPEDAETKYAPEFQGKATITADTSSNTAYLQLSTLTSEDTAVYYCARYYSSYLPFVYWGQGTLVTASA VL: DVVMTQTPLSLSVSLGDQASISCRSSQSLLYSNRHTYLHWYLQKPGQSPKLLIFQLSNRFSGVPDRFSGSGSGTDFTLKINRVEAEDLGVYFCSQSTHLPFTFGSGTKLEIKR ; retrieve measured kon. 705000
